- target-desc: UniProtKB Q72874
- assay-summary: In vitro inhibition of HIV-1 protease (NL4-3 strain).
pIC50: −log10 of the molar value.
Returns T if the recorded pIC50 is greater than or equal to 10, and F otherwise.

>>> df
                               smiles_entry  group
0  O=C(N[C@H]1c2ccccc2OC[C@H]1O)[C@H](Cc1cccnc1)C[C@H](O)CN1CCN(Cc2ccn(-c3cc(Cl)c(Cl)c(Cl)c3)c2)C[C@H]1C(=O)NCC(F)(F)F      T
1  O=C(N[C@H]1c2ccccc2OC[C@H]1O)[C@H](Cc1cccnc1)C[C@H](O)CN1CCN(Cc2ccn(-c3ccc(C(F)(F)F)cc3)c2)C[C@H]1C(=O)NCC(F)(F)F      T

Threshold query (pIC50 >= 10) on O=C(N[C@H]1c2ccccc2OC[C@H]1O)[C@H](Cc1cccnc1)C[C@H](O)CN1CCN(Cc2ccn(-c3cccc(Cl)c3)c2)C[C@H]1C(=O)NCC(F)(F)F
T

Param item: O=C(N[C@H]1c2ccccc2OC[C@H]1O)[C@H](Cc1cccnc1)C[C@H](O)CN1CCN(Cc2ccn(-c3ccc(F)cc3)c2)C[C@H]1C(=O)NCC(F)(F)F
T

Next: N#Cc1ccccc1-n1ccc(CN2CCN(C[C@@H](O)C[C@@H](Cc3cccnc3)C(=O)N[C@H]3c4ccccc4OC[C@H]3O)[C@H](C(=O)NCC(F)(F)F)C2)c1
F
